Measured melting point, listed per entry.

{"columns": ["COMPOUND", "melting point [°C]"],
 "data": [
  ["O=C(Nc1cccc2c1C[C@H](O)CC2)C1CCN(c2ccc(C(F)(F)F)cc2Cl)CC1 [Example 1-13]", 226],
  ["O=C(Nc1cccc2c1C[C@H](O)CC2)C1CCN(c2ccc(F)cc2)CC1 [Example 1-11]", 205],
  ["O=C(Nc1cccc2c1CC(O)CC2)C1CCN(c2ccc(C(F)(F)F)cc2Cl)CC1 (stereo not shown) [Example 1-10]", 226],
  ["O=C(Nc1cccc2c1CC(O)CC2)C1CCN(c2ccccc2[N+](=O)[O-])CC1 (stereo not shown) [Example 1-4]", 170]
]}

Reference for the values: patent US7615557B2
